- target: Tyrosine-protein phosphatase non-receptor type 1 (Homo sapiens)
- Sequence (P18031 whole entry): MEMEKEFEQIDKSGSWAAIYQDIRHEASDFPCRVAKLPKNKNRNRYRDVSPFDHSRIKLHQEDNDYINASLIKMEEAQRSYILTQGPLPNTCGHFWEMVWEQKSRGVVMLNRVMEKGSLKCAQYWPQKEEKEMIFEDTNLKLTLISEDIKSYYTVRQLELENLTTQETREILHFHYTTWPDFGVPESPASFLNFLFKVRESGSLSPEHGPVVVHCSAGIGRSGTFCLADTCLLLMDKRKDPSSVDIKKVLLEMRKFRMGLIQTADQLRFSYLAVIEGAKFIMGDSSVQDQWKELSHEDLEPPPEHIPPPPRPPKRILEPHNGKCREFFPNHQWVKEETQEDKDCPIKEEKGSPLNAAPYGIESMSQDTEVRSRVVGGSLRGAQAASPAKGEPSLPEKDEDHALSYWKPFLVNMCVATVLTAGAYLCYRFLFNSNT
- method.notes: Inhibition of recombinant human PTP1B using pNPP as substrate measured after 30 mins
pIC50: −log10 of the molar value.
parameter: pIC50

Exam item: Please give measured pIC50 of the following entry: COC(=O)C1=CO[C@@H](O[C@@H]2O[C@H](CO)[C@@H](O)[C@H](O)[C@H]2O)[C@@H]2C(CO)=CC[C@H]12 [GENIPOSIDE]
Marked response: < 3.30

Exam item: Please give measured pIC50 of the following entry: `COC(=O)C1=CO[C@@H](O)[C@@H]2C(CO)=CC[C@H]12`
Marked response: < 3.30

Exam item: Please give measured pIC50 of the following entry: `O=C(Nc1ccccc1)C1=CO[C@@H](O[C@@H]2O[C@H](CO)[C@@H](O)[C@H](O)[C@H]2O)[C@@H]2C(CO)=CC[C@H]12`
Marked response: < 4.00

----------
- target: UniProtKB P18031
- method.notes: Inhibition of recombinant human PTP1B using pNPP as substrate measured after 30 mins
parameter: IC50
Units required after the number.

Use these answered entries as a reference point.
INSERT INTO measurements (compound, parameter, result_value) VALUES
  ('CCOS(=O)(=O)/C=C/c1ccc(OCC2=CC[C@@H]3C(C(=O)Nc4ccc(Oc5ccc(Br)cc5Cl)cc4)=CO[C@@H](OC)[C@H]23)cc1', 'IC50', '1050 nM'),
  ('CCOS(=O)(=O)/C=C/c1ccc(OCC2=CC[C@@H]3C(C(=O)Nc4ccc(Oc5ccc(Br)cc5Cl)cc4)=CO[C@@H](OCc4ccccc4)[C@H]23)cc1', 'IC50', '410 nM'),
  ('CC(C)(C)c1ccc(Oc2ccc(NC(=O)C3=CO[C@@H](O[C@@H]4O[C@H](CO)[C@@H](O)[C@H](O)[C@H]4O)[C@@H]4C(CO)=CC[C@H]34)cc2)cc1', 'IC50', '17700 nM');

Exam item: Identify measured IC50 obtained with UniProtKB P18031 for `CCOS(=O)(=O)/C=C/c1ccc(OCC2=CC[C@@H]3C(C(=O)Nc4ccc(Oc5ccccc5)cc4)=CO[C@@H](OCc4ccccc4)[C@H]23)cc1` .
Marked response: 990 nM
